Molecular target: T1, Nsp9 (SARS-CoV-2, UniProt P0DTD1)
T1 chain: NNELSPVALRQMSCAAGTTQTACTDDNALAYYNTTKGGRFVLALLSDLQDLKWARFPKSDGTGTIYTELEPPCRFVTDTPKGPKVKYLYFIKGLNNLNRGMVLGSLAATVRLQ
Assay: FP
Give measured pKd for each item. Keep answers brief.
Note: pKd values are expressed as the negative base-10 logarithm of concentration in M.

Ask: Identify the reported pKd for the following entry. PAHPDGFALGRAPLA [LMTK3_(22–36)]
Reply: 4.47

Ask: Identify the reported pKd for the following entry. MNIQEQGFPLDLGAS [AXIN1_(1–15)]
Reply: 4.31

Ask: Identify the reported pKd for the following entry. AEGIDIGEMPSYDLVL [NKRF_(8–23)]
Reply: 4.30
